system: CYP 2C8, 1A2, 2C9, 2C19, 2D6 and 3A4; experiment: CYP inhibition, all isoforms tested; assay type: in vitro ADME; details: human
measurement.label: IC50

Query: Quick one: give measured IC50 for C[C@@]12COCCN1c1nc(-c3cccc4[nH]ccc34)ncc1N(C1CCOCC1)C2=O [4e]
Response: > 40 µM

* * *

system: pAKT-S473 in PC-3 cells (TORC2); test: Cellular p-AKT (ser473) AlphaScreen assay in PC-3 cells (TORC2 activity); format: cell-based, human; settings: Homo sapiens, PC-3, PC-3 cell line; read-out: pAKT S473 Cell IC50
// reported pIC50 for each item listed
API: returns pIC50 as number; meaning -log10 of concentration in mol/L.

Query: For C[C@@]12COCCN1c1nc(-c3cnc4cc[nH]c4c3)ncc1N(C1CCOCC1)C2=O [4c] , write its pIC50.
Response: 7.00

Query: Provide only the value of recorded pIC50 for C[C@@]12COCCN1c1nc(-c3cnc4[nH]ccc4c3)ncc1N(C1CCOCC1)C2=O [4b]
Response: 7.21

Query: Retrieve pIC50 measured for CC(F)(F)CN1C(=O)[C@]2(C)COCCN2c2nc(-c3ccc(NC(=O)NC4CC4)cc3)ncc21 [compound 1] and print it.
Response: 7.15

Query: Name the recorded pIC50 of the compound listed here: C[C@@]12COCCN1c1nc(-c3cnc4[nH]ccc4c3)ncc1N(C1CCOC1)C2=O (some centres unmarked) [13a]
Response: 7.13

Query: Give reported pIC50 value for C[C@@]12COCCN1c1nc(-c3ccc(NC(=O)NC4CC4)cc3)ncc1N(CC1CC1)C2=O [3a]
Response: 7.42

Query: Give the reported value of pIC50 for this record: C[C@@]12COCCN1c1nc(-c3ccc(NC(=O)NC4CC4)cc3)ncc1N(C1CCOCC1)C2=O [4a]
Response: 7.38

Query: Output pIC50 of Cc1ccc(-c2ncc3c(n2)N2CCOC[C@@]2(C)C(=O)N3C2CCOCC2)c2cc[nH]c12 [4g]
Response: 7.59
